Tested on: Wolbachia pipientis
experiment summary: Anti-Wolbachia Cell-Based Screen
Format: functional
Set-up: scale not given: in the data most compounds retested in dose-response had high values
condition context: 5 µM
Hit rate of the full screen: of about 48,000 compounds, about 13,000 (27%) showed an effect of 50% or more. Some of the results follow.
For each entry below, report its Percent Effect value.
One number for each entry, in %.

| molecule | assayed system | endpoint unit | Percent Effect |
| --- | --- | --- | --- |
| CCOC(=O)CC(C)Nc1nc(C(C)(C)C)nc2c1cnn2C (stereo not given) | Wolbachia pipientis | % | -7.754 |
| CN(C)CC(=O)NC1CC(C)(C)Cc2nc(C(C)(C)C)ncc21 (stereo not given) | Wolbachia pipientis | % | 106.4 |
| Cn1ncc(N2CCN(Cc3ccc(S(C)(=O)=O)cc3)CC2)cc1=O | Wolbachia pipientis | % | -9.751 |
| COc1cccc(-n2cc(-c3ccnc(N[C@H](CO)C(C)C)n3)cn2)c1 | Wolbachia pipientis | % | 4.852 |
| CCC(CO)NC(=O)c1cc(COc2ccc(OC)cc2Cl)[nH]n1 (stereo not given) | Wolbachia pipientis | % | -12.2 |
| CCc1[nH]c2ccc(CNc3cncc(C(=O)N(C)C)n3)cc2c1C | Wolbachia pipientis | % | 5.05 |
| Cc1ccc(C(=O)N2CC[C@H](N3CCOCC3)[C@H](CCCO)C2)cc1O | Wolbachia pipientis | % | -3.81 |
| CCCn1ncc(C(=O)N2CCN(C3CCCC3)CC2)c1C | Wolbachia pipientis | % | 4.008 |
| C[C@H](O)CNc1cc(-c2cn[nH]c2)ncn1 | Wolbachia pipientis | % | 139.4 |
| CC(C)c1ccc(OCn2ccc(C(=O)N3CCCC3)n2)cc1 | Wolbachia pipientis | % | -7.702 |

I need Percent Effect for every entry listed below, if you could help.
1. O=c1[nH]c(C2CCOC2)nc2cc(F)c(F)cc12 (stereo not given)
2. CN(Cc1nc(COc2ccccc2)no1)CC1Cc2ccccc2O1 (stereo not given)
3. COc1ccc(-n2c(CCC(=O)O)nc3ccccc32)cc1CO
4. CCCc1nnc(N(C)CC2CCN(CC(C)C)CC2)o1
5. CCC(C)N(C)CCNC(=O)NCc1cccc(-n2cncn2)c1 (stereo not given)

1. -25.67
2. -1.217
3. -17.89
4. -8.883
5. 23.44

----------
System: Wolbachia pipientis
experiment summary: Anti-Wolbachia Cell-Based Screen
Format: functional
Design: scale not given: in the data most compounds retested in dose-response had high values
condition context: 5 µM
Out of some 48,000 compounds screened, about 13,000 (27%) showed an effect of 50% or more. The list shows a part of the results.
reported metric: Percent Effect (%)
One number for each entry, in %.

Check out these entries, answers already filled in.
| compound | assayed system | Percent Effect, % |
| --- | --- | --- |
| Cc1noc(CN2CCN(CCO)CC2)n1 | Wolbachia pipientis | -2.451 |
| Cc1nc(CN2CCN(Cc3nccn3C)CC2)no1 | Wolbachia pipientis | 1.161 |
| Cn1nc(C2CCCN2)c2c(C(=O)NCC(F)(F)F)cc(C3CC3)nc21 (centres undefined) | Wolbachia pipientis | 125.9 |
| Cc1noc(CN2CCN(CC(C)O)CC2)n1 (centres undefined) | Wolbachia pipientis | 16.1 |
| Cc1nc(CN2CCN(c3ccc(Cl)cn3)CC2)no1 | Wolbachia pipientis | 102.8 |

I need Percent Effect for every entry listed below, if you could help.
1. Cc1noc(CN2CCN(c3cncc(Cl)n3)CC2)n1
2. COCCC1(C(=O)NCCc2nncn2C2CC2)CCC1
3. COCCN1CCO[C@@H]2CN(C(=O)COc3ccc(C)cc3)C[C@@H]2C1.O=C(O)C(F)(F)F
4. Cc1nc(CN2CCN(C(=O)CCc3cccc(Cl)c3)CC2)no1

120
-3.297
-10.88
2.234
